# System: MDA-N
# protocol: NCI tumour cell line growth inhibition, 48 h
parameter: TGI

For orientation, consider the following solved cases.
>>> value("C/C(CC/C(C)=N/O)=N\\O")
"> 100 µM"
>>> value("CC(=O)OC1=c2ccccc2=C(O)C2C1C=NN2C(C)=O (stereo unspecified)")
"> 100 µM"
>>> value("Cc1cc2nc(C(C)C(=O)c3ccc(Cl)cc3)c(=O)[nH]c2cc1C (stereo unspecified)")
"40.4 µM"
>>> value("C=C(C)C(=O)O[C@H]1C/C(CO)=C/CCC(=C)C(OC(C)=O)[C@H]2OC(=O)C(=C)[C@H]12 (stereo partly specified)")
"19.1 µM"
>>> value("OCC1OC(n2nc(-c3ccccc3)nc2-c2cnccn2)C(O)C(O)C1O (stereo unspecified)")
"> 100 µM"

State the recorded TGI for this entry: CCCCCCCC1C(C)c2c([nH]c3ccccc23)C2C(=O)N(c3ccc(OC)cc3)C(=O)C21 (stereo unspecified)
> 10 µM

# get_value(readout='TGI', item= "Cc1cc(N(CCC#N)CCC#N)ccc1/C(N=Nc1ccc(Cl)cc1)=N\NC(=O)c1cc(Cl)ccc1O" )
> 100 µM

Name the recorded TGI for "CC1(C)[C@H](C(=O)O)N2C(=O)[C@@H](NS(=O)(=O)c3ccc([N+](=O)[O-])cc3)[C@H]2S1(=O)=O" .
> 100 µM

----------
# System: HOP-62 NSCLC
# protocol: NCI tumour cell line growth inhibition, 48 h
Could you label it rule met if measured TGI is 30 µM or higher, and rule not met otherwise?

Would you please look over these solved cases?
>>> classification("COc1ccccc1/C=C(\\C#N)c1ccccc1")
"rule met"
>>> classification("O=C(Nc1nnc(-c2ccccc2)o1)C(SC(=S)N1CCCCC1)c1ccccc1 (stereo not given)")
"rule met"
>>> classification("CO/N=C(\\C)c1ccc(Nc2c3ccccc3nc3occc23)cc1")
"rule not met"
>>> classification("Cc1cccc(NC(=O)CCc2ccc(N3C(N)=NC(N)=NC3(C)C)cc2)c1")
"rule met"
>>> classification("CCCCCCCCCCCCNC(C)=O")
"rule not met"

Given the entry "COc1ccc2oc(=O)cc(C(c3ccc[nH]3)c3ccc[nH]3)c2c1" , answer whether its TGI meets or surpasses 30 µM.
rule not met

Reported TGI at or above 30 µM? C=C(C)C(=O)O[C@H]1C/C(CO)=C/CCC(=C)C(OC(C)=O)[C@H]2OC(=O)C(=C)[C@H]12 (stereo not given in full)
rule met

Say whether "O=C(Nn1c(-c2ccccc2)nc2ccccc2c1=O)c1ccc(CS)cc1" shows TGI of 30 µM or more.
rule met

In plain terms: is recorded TGI at least 30 µM for "C/C(CC/C(C)=N/O)=N\O" ?
rule met

Evaluate "CC(C)(C)c1cc(CC2C(=O)c3ccccc3C2=O)cc(C(C)(C)C)c1O" : TGI at minimum 30 µM?
rule not met

Does TGI meet or surpass 30 µM for "O=C[C@@H](CO)O[C@H](C=O)c1c[nH]c(=O)[nH]c1=O" ?
rule met

TGI >= 30 µM for "F" ?
rule met

Decide: is the reported value of TGI for "O=C(NC1CCN(Cc2ccccc2)CC1)c1cc(-c2ccncc2)nc2ccc(Cl)cc12" equal to or greater than 30 µM?
rule met

For this molecule, is measured TGI 30 µM or higher? "NCC(=O)NC1(c2cc3ccccc3s2)CCCCC1"
rule met

Determine whether measured TGI meets or exceeds 30 µM for "ClCCCN(CCCCl)c1ccc(C=Nc2cccc(Cl)c2)cc1"
rule met
